ASSAY SUMMARY: in vitro
APPLIED CONDITIONS: human, CC50 (uM) [SG]
The molecules listed here are annotated with their CC50.

Input: Consider the molecule CN[C@H]1CC[C@@H](c2ccc(Cl)c(Cl)c2)c2ccc(NS(C)(=O)=O)cc21 [Sertraline (Reverse) Methanesulfonamide] and give its measured CC50.
Output: 12.9 µM

Input: Then this molecule: CN[C@H]1CC[C@@H](c2ccc(Cl)c(Cl)c2)c2ccc(C(=O)Nc3ccccn3)cc21 [Sertraline A-ring Pyridine Carboxamide]
Output: 7.05 µM

Input: Then this molecule: CNC1CCC(c2ccc(Cl)c(Cl)c2)c2ccsc21 (centres unmarked)
Output: 18.8 µM

Input: Then this molecule: CN[C@H]1CC[C@@H](c2ccc(Cl)c(Cl)c2)c2ccc(S(=O)(=O)N(C)C)cc21 [Sertraline N,N-dimethylsulfonamide]
Output: 8.87 µM

Input: Then this molecule: CN[C@H]1CC[C@@H](c2ccc(Cl)c(Cl)c2)c2ccc(N(C)C)cc21
Output: 6.22 µM
